target: purine nucleoside phosphorylase (PNP-4) (Homo sapiens, UniProt P00491)
Construct: using hyman erythrocyte as the enzyme source
Sequence (P00491 whole entry): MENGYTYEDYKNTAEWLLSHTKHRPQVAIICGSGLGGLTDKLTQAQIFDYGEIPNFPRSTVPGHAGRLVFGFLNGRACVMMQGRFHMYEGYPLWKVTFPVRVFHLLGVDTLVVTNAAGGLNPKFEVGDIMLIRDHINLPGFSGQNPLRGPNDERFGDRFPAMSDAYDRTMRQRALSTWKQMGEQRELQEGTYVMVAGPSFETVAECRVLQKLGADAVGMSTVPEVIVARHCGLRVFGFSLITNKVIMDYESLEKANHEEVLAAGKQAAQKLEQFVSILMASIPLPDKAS
protocol: purine nucleoside phosphorylase (PNP-4) enzyme assay, radiochemical, formation of [14C]-hypoxanthine from [14C]inosine
experimental setup: erythrocyte enzyme; [14C]inosine substrate
pIC50: −log10 of the molar value. Counter-ions that a name gives are not always drawn.
Recorded pIC50 split into classes small value (below 5), mid value (5 to below 6), large value (6 or more)

Sample answers from the record:
| compound | category |
| --- | --- |
| Cc1sccc1Cn1c(N)nc2c(=O)[nH]c(N)nc21 [Example 16Ad] | mid value |
| Cc1ccsc1Cn1c(N)nc2c(=O)[nH]c(N)nc21 | mid value |
| Nc1nc2c(nc(N)n2Cc2ccccn2)c(=O)[nH]1 [Example 16Af] | mid value |
| Cc1cc(Cn2c(N)nc3c(=O)[nH]c(N)nc32)cs1 [Example 16Ak] | large value |
| Nc1nc2c(nc(N)n2Cc2ccco2)c(=O)[nH]1 [Example 9b, monohydrochloride] | large value |

In: For this compound, which bin applies? "Nc1nc2c(nc(N)n2Cc2cccs2)c(=O)[nH]1"
Out: large value

In: For this compound, which bin applies? Nc1nc2c(nc(N)n2Cc2ccsc2)c(=O)[nH]1 [Example 9c, monohydrochloride, monohydrate]
Out: large value

In: For this compound, which bin applies? "Nc1nc2c(nc(N)n2Cc2csc3ccccc23)c(=O)[nH]1"
Out: small value

In: For this compound, which bin applies? Nc1nc2c(nc(N)n2CCc2cccs2)c(=O)[nH]1 [Example 16Ac]
Out: mid value

In: For this compound, which bin applies? Nc1nc2c(ncn2Cc2cccnc2)c(=O)[nH]1 [Example 1, 9-[(3-Pyridinyl)methyl]guanine]
Out: small value

----------
Test system: T-Cell
protocol: HTBA-1 T-cell cytotoxicity in the presence of 2'-deoxyguanosine
Format: cell-based
experimental setup: read-out: HTBA-1 T-Cell +dGuo (10 μM) IC50
Counter-ions that a name gives are not always drawn.
value type: IC50 (µM)
Write the number in µM without appending the unit.

| compound | reported value |
| --- | --- |
| Nc1nc2c(nc(N)n2Cc2ccco2)c(=O)[nH]1 [Example 9b, monohydrochloride] | 2.57 |

In: Kindly indicate its recorded IC50. Item: "Nc1nc2c(nc(N)n2Cc2cccs2)c(=O)[nH]1"
Out: 0.83
